# Tested on: NCI-H23 lung
# experiment notes: NCI tumour cell line growth inhibition, 48 h
# TGI values compiled below

See these solved cases before continuing.
CC(C)(C)n1cc(-c2ccnc(NCCNS(=O)(=O)c3ccc(Br)cc3)c2)c(-c2cccc(O)c2)n1: 3.97 µM
Oc1ccc(-c2c3c(nc4c2CCc2ccc(Br)cc2-4)-c2cc(Br)ccc2CC3)cc1: 38.7 µM
COC(=O)[C@H](Cc1ccccc1)NC(=O)c1csc([C@@H](C[C@H](C(C)C)N(C)C(=O)[C@@H](NC(=O)[C@H]2CCCCN2C)C2CC2)OC(C)=O)n1: > 25 µM

Now consider the entry below.
Prompt: Value lookup for TGI; key = `O=C1CCC2(CCC(=O)NC2=O)C(=O)N1`
Completion: > 100 µM
